Where do the numbers come from? From paper PMC7307906.

Give EC50 for every item shown.
assay system: human MC4R (Homo sapiens)
experiment: cAMP assay (LANCE) in T-Rex-293 cells expressing MC4R
conditions used: cAMP assay; mean (± SEM) of at least three independent experiments; read-out: EC50 hMC4R cAMP
Where a SMILES comes first, the peptide text is derived from it.

Input line: Please give the documented EC50 of C[C@@H]1NC(=O)[C@H](CC(N)=O)NC(=O)[C@H](Cc2ccccc2)NC(=O)[C@H](Cc2ccccc2)NC(=O)[C@H](CCCNC(=N)N)NC(=O)[C@@H](NC(=O)[C@@H](N)Cc2ccc(O)cc2)CSSC[C@@H](C(=O)N[C@@H](Cc2ccc(O)cc2)C(N)=O)NC(=O)[C@H](Cc2ccccc2)NC1=O [compound 28, reference compound] (HELM PEPTIDE1{Y.C.R.F.F.N.A.F.C.Y.[am]}$PEPTIDE1,PEPTIDE1,2:R3-9:R3$$$V2.0)
Output line: > 100 µM

Input line: # return recorded EC50 for input CN1C(=O)[C@H]2N[C@@H](c3ccc(cc3)C(=O)NCCCC[C@@H](C(=O)N[C@@H](Cc3ccc(O)cc3)C(N)=O)NC(=O)[C@H](CC(N)=O)NC(=O)[C@@H](Cc3ccccc3)NC(=O)[C@@H](Cc3ccccc3)NC(=O)[C@H](CCCNC(=N)N)NC(=O)[C@@H]1Cc1ccccc1)[C@H]1C(=O)N(c3ccccc3)C(=O)[C@H]12 [K1-minor, [II-FRffNK ]Y]
Output line: > 100 µM

Input line: // fetch EC50 given entry C[C@@H]1NC(=O)[C@H](CC(N)=O)NC(=O)[C@H](Cc2ccccc2)NC(=O)[C@H](Cc2ccccc2)NC(=O)[C@H](CCCNC(=N)N)NC(=O)[C@H](Cc2ccccc2)N(C)C(=O)[C@H]2N[C@@H](c3ccc(cc3)C(=O)NCCCC[C@@H](C(=O)NCC(N)=O)NC(=O)[C@H](Cc3ccccc3)NC1=O)[C@H]1C(=O)N(c3ccccc3)C(=O)[C@H]12 [B3-major*, [ II-FRFFNAFK]G]
Output line: > 10 µM

====

assay system: human MC1R (Homo sapiens, UniProt Q01726)
Sequence (Q01726 whole entry): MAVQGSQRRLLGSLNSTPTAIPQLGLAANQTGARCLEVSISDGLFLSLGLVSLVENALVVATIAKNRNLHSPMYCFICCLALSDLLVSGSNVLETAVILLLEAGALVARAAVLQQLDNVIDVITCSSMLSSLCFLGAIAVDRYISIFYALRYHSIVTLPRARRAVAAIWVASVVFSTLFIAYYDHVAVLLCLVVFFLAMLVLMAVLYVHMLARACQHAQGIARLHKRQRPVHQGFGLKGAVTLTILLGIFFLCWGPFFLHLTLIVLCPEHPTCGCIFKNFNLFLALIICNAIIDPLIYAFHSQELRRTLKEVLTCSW
experiment: cAMP assay (LANCE) in T-Rex-293 cells expressing MC1R
conditions used: cAMP assay; mean (± SEM) of at least three independent experiments; read-out: EC50 hMC1R cAMP
quantity kind: EC50

Input line: Please look at this compound and report its EC50: CN1C(=O)[C@@H]2[C@H](C1=O)[C@H]1N[C@@H]2C(=O)N(C)[C@@H](Cc2ccccc2)C(=O)N[C@@H](CCCNC(=N)N)C(=O)N[C@H](Cc2ccccc2)C(=O)N[C@H](Cc2ccccc2)C(=O)N[C@@H](CC(N)=O)C(=O)N[C@H](C(=O)NCC(N)=O)CCCCNC(=O)c2ccc1cc2 [K2-minor, [I-FRffNK ]G]
Output line: > 10 µM

Input line: Annotate the compound CN1C(=O)[C@H]2N[C@@H](c3ccc(cc3)C(=O)NCCCC[C@@H](C(=O)N[C@@H](Cc3ccc(O)cc3)C(N)=O)NC(=O)[C@H](CC(N)=O)NC(=O)[C@@H](Cc3ccccc3)NC(=O)[C@@H](Cc3ccccc3)NC(=O)[C@H](CCCNC(=N)N)NC(=O)[C@@H]1Cc1ccccc1)[C@H]1C(=O)N(c3ccccc3)C(=O)[C@H]12 [K1-minor, [II-FRffNK ]Y] with its measured EC50.
Output line: > 100 µM

Input line: Quickly give me recorded EC50 for CN1C(=O)[C@@H]2[C@H](C1=O)[C@H]1N[C@@H]2c2ccc(cc2)C(=O)NCCCC[C@@H](C(=O)N[C@@H](Cc2ccc(O)cc2)C(N)=O)NC(=O)[C@H](CC(N)=O)NC(=O)[C@H](Cc2ccccc2)NC(=O)[C@H](Cc2ccccc2)NC(=O)[C@H](CCCNC(=N)N)NC(=O)[C@H](Cc2ccccc2)N(C)C1=O [J1-major, [ I-FRFFNK ]Y]
Output line: 17 µM

Input line: Complete the entry with EC50 for C[C@@H]1NC(=O)[C@H](CC(N)=O)NC(=O)[C@H](Cc2ccccc2)NC(=O)[C@H](Cc2ccccc2)NC(=O)[C@H](CCCNC(=N)N)NC(=O)[C@H](Cc2ccccc2)N(C)C(=O)[C@H]2N[C@@H](c3ccc(cc3)C(=O)NCCCC[C@@H](C(=O)NCC(N)=O)NC(=O)[C@H](Cc3ccccc3)NC1=O)[C@H]1C(=O)N(c3ccccc3)C(=O)[C@H]12 [B3-major*, [ II-FRFFNAFK]G]
Output line: > 10 µM

====

assay system: human MC3R (Homo sapiens)
Sequence (P41968 whole entry): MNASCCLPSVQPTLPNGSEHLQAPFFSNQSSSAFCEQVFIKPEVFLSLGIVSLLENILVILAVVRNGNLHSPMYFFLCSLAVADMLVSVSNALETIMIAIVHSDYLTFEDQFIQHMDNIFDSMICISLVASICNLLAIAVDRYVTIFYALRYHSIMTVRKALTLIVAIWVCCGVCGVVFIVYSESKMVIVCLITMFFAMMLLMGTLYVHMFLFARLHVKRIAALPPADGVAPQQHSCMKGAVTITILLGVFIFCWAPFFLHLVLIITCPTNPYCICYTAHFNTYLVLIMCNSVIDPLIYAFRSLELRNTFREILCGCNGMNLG
Where a SMILES comes first, the peptide text is derived from it.
quantity kind: IC50

Input line: In one line, give reported IC50 of the entry C[C@@H]1NC(=O)[C@H](CC(N)=O)NC(=O)[C@@H](Cc2ccccc2)NC(=O)[C@@H](Cc2ccccc2)NC(=O)[C@H](CCCNC(=N)N)NC(=O)[C@H](Cc2ccccc2)N(C)C(=O)[C@@H]2N[C@H](c3ccc(cc3)C(=O)NCCCC[C@@H](C(=O)N[C@@H](Cc3ccc(O)cc3)C(N)=O)NC1=O)[C@@H]1C(=O)N(C)C(=O)[C@@H]12 [G1-major, [I-FRffNAK ]Y] .
Output line: > 10 µM

Input line: Output measured IC50 for this item: CN1C(=O)[C@@H]2[C@H](C1=O)[C@H]1N[C@@H]2c2ccc(cc2)C(=O)NCCCC[C@@H](C(=O)N[C@@H](Cc2ccc(O)cc2)C(N)=O)NC(=O)[C@H](CC(N)=O)NC(=O)[C@H](Cc2ccccc2)NC(=O)[C@H](Cc2ccccc2)NC(=O)[C@H](CCCNC(=N)N)NC(=O)[C@H](Cc2ccccc2)N(C)C1=O [J1-major, [ I-FRFFNK ]Y]
Output line: > 100 µM

Input line: Dear colleague, please send me the reported IC50 for C[C@@H]1NC(=O)[C@H](CC(N)=O)NC(=O)[C@H](Cc2ccccc2)NC(=O)[C@H](Cc2ccccc2)NC(=O)[C@H](CCCNC(=N)N)NC(=O)[C@@H](NC(=O)[C@@H](N)Cc2ccc(O)cc2)CSSC[C@@H](C(=O)N[C@@H](Cc2ccc(O)cc2)C(N)=O)NC(=O)[C@H](Cc2ccccc2)NC1=O [compound 28, reference compound] (HELM PEPTIDE1{Y.C.R.F.F.N.A.F.C.Y.[am]}$PEPTIDE1,PEPTIDE1,2:R3-9:R3$$$V2.0) when you can.
Output line: 1.6 µM

Input line: Return value of IC50 for input CN1C(=O)[C@H]2N[C@@H](c3ccc(cc3)C(=O)NCCCC[C@@H](C(=O)NCC(N)=O)NC(=O)[C@H](CC(N)=O)NC(=O)[C@H](Cc3ccccc3)NC(=O)[C@H](Cc3ccccc3)NC(=O)[C@H](CCCNC(=N)N)NC(=O)[C@@H]1Cc1ccccc1)[C@H]1C(=O)N(c3ccccc3)C(=O)[C@H]12 [J3-major*, [ II-FRFFNK ]G] , no commentary.
Output line: > 100 µM

====

Exercise: state measured pEC50 for each of the compounds provided.
assay system: human MC4R (Homo sapiens, UniProt P32245)
Sequence (P32245 whole entry): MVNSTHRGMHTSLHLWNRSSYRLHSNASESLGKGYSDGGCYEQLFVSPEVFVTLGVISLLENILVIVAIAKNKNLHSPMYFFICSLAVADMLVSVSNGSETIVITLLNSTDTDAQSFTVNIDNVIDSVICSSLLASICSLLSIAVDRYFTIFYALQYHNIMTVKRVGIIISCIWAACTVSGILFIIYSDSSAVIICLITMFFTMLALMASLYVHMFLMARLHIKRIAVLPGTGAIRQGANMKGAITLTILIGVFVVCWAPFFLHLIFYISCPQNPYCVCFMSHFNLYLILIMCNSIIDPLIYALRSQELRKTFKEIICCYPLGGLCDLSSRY
experiment: cAMP assay (LANCE) in T-Rex-293 cells expressing MC4R
conditions used: cAMP assay; mean (± SEM) of at least three independent experiments; read-out: EC50 hMC4R cAMP
pEC50: −log10 of the molar value.

Input line: Supply pEC50 value. Item: CN1C(=O)[C@@H]2[C@H](C1=O)[C@H]1N[C@@H]2C(=O)N(C)[C@@H](Cc2ccccc2)C(=O)N[C@@H](CCCNC(=N)N)C(=O)N[C@H](Cc2ccccc2)C(=O)N[C@H](Cc2ccccc2)C(=O)N[C@H](C(=O)N[C@@H](Cc2ccc(O)cc2)C(N)=O)CCCCNC(=O)c2ccc1cc2 [O1-minor, [I-FRffK ]Y]
Output line: < 5.00

Input line: Give pEC50 for CN1C(=O)[C@@H]2N[C@H](c3ccc(cc3)C(=O)NCCCC[C@@H](C(=O)N[C@@H](Cc3ccc(O)cc3)C(N)=O)NC(=O)[C@H](CC(N)=O)NC(=O)[C@@H](Cc3ccccc3)NC(=O)[C@@H](Cc3ccccc3)NC(=O)[C@H](CCCNC(=N)N)NC(=O)[C@@H]1Cc1ccccc1)[C@@H]1C(=O)N(c3ccccc3)C(=O)[C@@H]12 [K1-major, [II-FRffNK ]Y]
Output line: < 4.00

====

Exercise: state measured EC50 for each of the compounds provided.
assay system: human MC4R (Homo sapiens, UniProt P32245)
experiment: cAMP assay (LANCE) in T-Rex-293 cells expressing MC4R
conditions used: cAMP assay; mean (± SEM) of at least three independent experiments; read-out: EC50 hMC4R cAMP
Where a SMILES comes first, the peptide text is derived from it.

Input line: Consider the compound C[C@@H]1NC(=O)[C@H](CC(N)=O)NC(=O)[C@H](Cc2ccccc2)NC(=O)[C@H](Cc2ccccc2)NC(=O)[C@H](CCCNC(=N)N)NC(=O)[C@H](Cc2ccccc2)N(C)C(=O)[C@@H]2N[C@H](c3ccc(cc3)C(=O)NCCCC[C@@H](C(=O)N[C@@H](Cc3ccc(O)cc3)C(N)=O)NC1=O)[C@@H]1C(=O)N(C)C(=O)[C@@H]12 [F1-minor*, [ I-FRFFNAK ]Y] . State its measured EC50.
Output line: > 100 µM

Input line: Item C[C@@H]1NC(=O)[C@H](CC(N)=O)NC(=O)[C@@H](Cc2ccccc2)NC(=O)[C@@H](Cc2ccccc2)NC(=O)[C@H](CCCNC(=N)N)NC(=O)[C@@H](NC(=O)[C@@H](N)Cc2ccc(O)cc2)CSSC[C@@H](C(=O)N[C@@H](Cc2ccc(O)cc2)C(N)=O)NC(=O)[C@H](Cc2ccccc2)NC1=O [compound 29, Y[CRffNAFC]Y, reference compound] (HELM PEPTIDE1{Y.C.R.[dF].[dF].N.A.F.C.Y.[am]}$PEPTIDE1,PEPTIDE1,2:R3-9:R3$$$V2.0) : provide EC50
Output line: > 100 µM
